Biological target: MINK1 (human) (UniProt Q8N4C8)
Sequence (Q8N4C8 whole entry, looked up): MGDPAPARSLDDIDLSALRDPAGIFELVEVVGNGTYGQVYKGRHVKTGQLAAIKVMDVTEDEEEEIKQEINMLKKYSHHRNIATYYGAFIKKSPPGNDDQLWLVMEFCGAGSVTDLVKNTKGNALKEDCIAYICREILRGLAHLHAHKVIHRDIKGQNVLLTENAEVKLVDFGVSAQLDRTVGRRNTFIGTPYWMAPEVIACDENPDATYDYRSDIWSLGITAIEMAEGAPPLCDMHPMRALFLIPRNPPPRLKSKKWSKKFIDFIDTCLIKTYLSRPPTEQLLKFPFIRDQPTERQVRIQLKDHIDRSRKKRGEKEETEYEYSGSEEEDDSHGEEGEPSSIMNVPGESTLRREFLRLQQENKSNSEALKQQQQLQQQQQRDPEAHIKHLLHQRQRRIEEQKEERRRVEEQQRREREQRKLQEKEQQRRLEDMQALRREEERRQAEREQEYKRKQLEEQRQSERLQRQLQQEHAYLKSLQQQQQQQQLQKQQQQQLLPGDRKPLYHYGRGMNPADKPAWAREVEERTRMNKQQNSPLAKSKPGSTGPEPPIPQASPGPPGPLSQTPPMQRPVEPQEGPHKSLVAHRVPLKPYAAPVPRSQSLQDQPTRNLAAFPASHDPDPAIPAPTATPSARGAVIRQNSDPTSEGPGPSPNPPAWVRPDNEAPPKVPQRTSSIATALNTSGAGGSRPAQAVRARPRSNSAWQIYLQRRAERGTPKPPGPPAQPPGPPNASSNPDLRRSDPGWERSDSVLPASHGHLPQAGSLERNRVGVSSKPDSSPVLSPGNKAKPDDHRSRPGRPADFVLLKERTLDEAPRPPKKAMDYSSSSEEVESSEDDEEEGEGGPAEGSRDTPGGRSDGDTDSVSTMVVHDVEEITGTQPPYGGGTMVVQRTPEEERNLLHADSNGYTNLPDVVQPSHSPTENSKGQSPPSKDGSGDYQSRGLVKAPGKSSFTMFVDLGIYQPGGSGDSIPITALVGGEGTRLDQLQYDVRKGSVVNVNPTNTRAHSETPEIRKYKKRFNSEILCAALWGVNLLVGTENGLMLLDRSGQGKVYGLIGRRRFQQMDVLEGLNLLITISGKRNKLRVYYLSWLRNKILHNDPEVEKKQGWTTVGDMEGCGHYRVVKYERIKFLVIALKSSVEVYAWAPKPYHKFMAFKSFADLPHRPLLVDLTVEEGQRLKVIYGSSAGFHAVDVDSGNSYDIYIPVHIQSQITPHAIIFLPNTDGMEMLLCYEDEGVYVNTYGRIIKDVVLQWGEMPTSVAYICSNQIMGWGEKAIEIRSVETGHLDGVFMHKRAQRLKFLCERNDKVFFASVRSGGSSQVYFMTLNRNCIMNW
Experiment: KINOMEscan competition binding
Conditions: compound 10.0 µM
The entries below are paired with their reported kinase still bound, per cent of control.
Provide the reading as a plain figure in %.

Cn1c(=O)n(-c2ccc(C(C)(C)C#N)cc2)c2c3cc(-c4cnc5ccccc5c4)ccc3ncc21    100

Reported kinase still bound, per cent of control of "OCCCNc1cc(-c2ccnc(Nc3cccc(Cl)c3)n2)ccn1" : 100

Reported kinase still bound, per cent of control of "CCOc1cc2ncc(C#N)c(Nc3ccc(OCc4ccccn4)c(Cl)c3)c2cc1NC(=O)/C=C/CN(C)C" : 6.8

Reported kinase still bound, per cent of control of "O=C(NC1CC1)c1cccc(-c2ccc3c(NC(=O)C4CC4)n[nH]c3c2)c1" : 43

====

The entries below are paired with their reported kinase still bound, per cent of control.
Target: MYLK4 (human)
Experiment: KINOMEscan competition binding
Conditions: compound 10.0 µM
Provide the reading as a plain figure in %.

Here are 6 molecules together with their reported answers.
CCN1CCN(Cc2ccc(Nc3ncc4c(n3)N(C)c3ccccc3C(=O)N4C)cc2C(F)(F)F)CC1    99
C[C@@H](Oc1cc(-n2cnc3ccc(CN4CCN(C)CC4)cc32)sc1C(N)=O)c1ccccc1C(F)(F)F    78
COc1cc(N2CCN(C)CC2)ccc1Nc1nc(N)c(C(=O)c2c(Cl)cccc2Cl)s1    100
CCCS(=O)(=O)Nc1ccc(F)c(C(=O)c2c[nH]c3ncc(-c4ccc(Cl)cc4)cc23)c1F    0.45
Cc1ccc2nc(NCCN)c3ncc(C)n3c2c1    8.8
O=C1Nc2ccc(I)cc2/C1=C/c1cc(Br)c(O)c(Br)c1    14

Reported kinase still bound, per cent of control of "CCC(=O)N1CCN(c2ccc(-n3c(=O)ccc4cnc5ccc(-c6cnc7ccccc7c6)cc5c43)cc2C(F)(F)F)CC1" : 83

Reported kinase still bound, per cent of control of "N#Cc1c(NC(=O)c2cccc3ccccc23)sc2c1CCCC2" : 98

====

Target: FGFR3 (human)
Assay: KINOMEscan competition binding
Conditions: compound 10.0 µM
reportedEndpoint: kinase still bound, per cent of control (%)
Provide the reading as a plain figure in %.

O=C(NC1CC1)c1cccc(-c2ccc3c(NC(=O)C4CC4)n[nH]c3c2)c1    100

// below: kinase still bound, per cent of control requested for another compound
Reported kinase still bound, per cent of control of "Cc1ccc2nc(NCCN)c3ncc(C)n3c2c1" : 99

====

The entries below are paired with their reported kinase still bound, per cent of control.
Target: DAPK2 (human) (UniProt Q9UIK4)
Sequence (Q9UIK4 whole entry, looked up): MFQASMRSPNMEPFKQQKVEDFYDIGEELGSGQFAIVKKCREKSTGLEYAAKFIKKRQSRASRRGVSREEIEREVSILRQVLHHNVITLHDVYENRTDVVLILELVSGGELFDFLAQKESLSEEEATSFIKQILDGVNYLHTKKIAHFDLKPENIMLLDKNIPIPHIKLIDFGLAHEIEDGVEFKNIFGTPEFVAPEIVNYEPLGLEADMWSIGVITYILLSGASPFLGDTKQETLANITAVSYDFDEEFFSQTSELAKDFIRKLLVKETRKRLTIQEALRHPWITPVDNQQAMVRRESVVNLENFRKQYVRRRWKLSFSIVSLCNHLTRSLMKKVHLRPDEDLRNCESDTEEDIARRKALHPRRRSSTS
Experiment: KINOMEscan competition binding
Details: compound 10.0 µM
Just the number plus its unit, please.

COc1cc(C(=O)NC2CCN(C)CC2)ccc1Nc1ncc2c(n1)N(C1CCCC1)CCC(=O)N2C(C)C    100%
C=CC(=O)Nc1cccc(Oc2nc(Nc3ccc(N4CCN(C)CC4)cc3OC)ncc2Cl)c1    28%
CCOc1cc2ncc(C#N)c(Nc3ccc(OCc4ccccn4)c(Cl)c3)c2cc1NC(=O)/C=C/CN(C)C    87%
Nc1ccc(-c2ccc3ncc4ccc(=O)n(-c5cccc(C(F)(F)F)c5)c4c3c2)cn1    100%
COc1cc(C(=O)NC2CCN(C)CC2)ccc1Nc1ncc2c(n1)N(C1CCCC1)C(C)CC(=O)N2C (centres undefined)    100%

Reported kinase still bound, per cent of control of "O=C(O)c1ccc(Nc2ncc3c(n2)-c2ccc(Cl)cc2C(c2c(F)cccc2F)=NC3)cc1" : 41%

Reported kinase still bound, per cent of control of "C=CC(=O)Nc1cccc(Nc2nc(N[C@H]3CC[C@H](N(C)C)CC3)nc3c2ncn3C(C)C)c1" : 37%

Reported kinase still bound, per cent of control of "O=C(NOC[C@H](O)CO)c1ccc(F)c(F)c1Nc1ccc(I)cc1F" : 100%

Reported kinase still bound, per cent of control of "Cc1ccc(C(=O)Nc2cccc(C(F)(F)F)c2)cc1Nc1cncc(C(N)=O)c1" : 100%

====

The entries below are paired with their reported kinase still bound, per cent of control.
Target: RAF1 (human)
Assay: KINOMEscan competition binding
Settings: compound 10.0 µM
Just the number plus its unit, please.

Here are 3 molecules together with their reported answers.
O=C(NC1CC1)c1cccc(-c2ccc3c(NC(=O)C4CC4)n[nH]c3c2)c1    78%
C=CC(=O)Nc1cccc(Oc2nc(Nc3ccc(N4CCN(C)CC4)cc3OC)ncc2Cl)c1    100%
O=C1Nc2ccc(I)cc2/C1=C/c1cc(Br)c(O)c(Br)c1    0.65%

Reported kinase still bound, per cent of control of "C[C@@H](Oc1cc(-n2cnc3ccc(CN4CCN(C)CC4)cc32)sc1C(N)=O)c1ccccc1C(F)(F)F" : 100%

Reported kinase still bound, per cent of control of "OCCCNc1cc(-c2ccnc(Nc3cccc(Cl)c3)n2)ccn1" : 100%

Reported kinase still bound, per cent of control of "CCCS(=O)(=O)Nc1ccc(F)c(C(=O)c2c[nH]c3ncc(-c4ccc(Cl)cc4)cc23)c1F" : 0.95%

Reported kinase still bound, per cent of control of "Cc1cc([C@@H](C)Nc2ccccc2C(=O)O)c2nc(N3CCOCC3)cc(=O)n2c1" : 100%

Reported kinase still bound, per cent of control of "CN(C)C/C=C/C(=O)Nc1cccc(Nc2ncc3c(n2)N(C)c2ccccc2C(=O)N3C)c1" : 96%

Reported kinase still bound, per cent of control of "N#Cc1c(NC(=O)c2cccc3ccccc23)sc2c1CCCC2" : 100%

Reported kinase still bound, per cent of control of "C=CC(=O)Nc1cccc(Nc2nc(N[C@H]3CC[C@H](N(C)C)CC3)nc3c2ncn3C(C)C)c1" : 100%

====

Test system: EGFR (human), P00533 [G719S]
Assay: KINOMEscan competition binding
Conditions: compound 10.0 µM
reportedEndpoint: kinase still bound, per cent of control (%)
Provide the reading as a plain figure in %.

Cc1cc([C@@H](C)Nc2ccccc2C(=O)O)c2nc(N3CCOCC3)cc(=O)n2c1    98
C=CC(=O)Nc1ccc(CN(C(=O)Nc2c(Cl)c(OC)cc(OC)c2Cl)c2cc(Nc3ccc(N4CCN(C)CC4)cc3)ncn2)cc1    0.15
N#Cc1cc(-c2ccnc(Nc3ccc(-n4cnc(-c5cccnc5)n4)cc3)n2)cc(N2CCOCC2)c1    94

Reported kinase still bound, per cent of control of "CCN(CC)CCCCNc1ncc2c(n1)N(C)C(=O)N(c1c(Cl)c(OC)cc(OC)c1Cl)C2" : 100

Reported kinase still bound, per cent of control of "Cc1ccc(NC(=O)c2cccc(C(C)(C)C#N)c2)cc1Nc1ccc2ncn(C)c(=O)c2c1" : 37

====

Target: UniProt:O14965
Sequence (O14965 whole entry, looked up): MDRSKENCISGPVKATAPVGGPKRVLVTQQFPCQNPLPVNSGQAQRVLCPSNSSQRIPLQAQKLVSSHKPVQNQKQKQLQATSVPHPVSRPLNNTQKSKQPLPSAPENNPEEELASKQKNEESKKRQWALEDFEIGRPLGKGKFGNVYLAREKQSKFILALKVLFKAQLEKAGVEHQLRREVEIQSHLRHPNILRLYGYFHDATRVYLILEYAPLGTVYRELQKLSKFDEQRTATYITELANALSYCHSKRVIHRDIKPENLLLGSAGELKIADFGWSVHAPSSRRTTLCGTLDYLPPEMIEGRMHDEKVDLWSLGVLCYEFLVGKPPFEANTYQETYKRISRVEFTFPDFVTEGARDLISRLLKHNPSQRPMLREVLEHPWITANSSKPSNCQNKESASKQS
Assay: KINOMEscan competition binding
Details: compound 10.0 µM
reportedEndpoint: kinase still bound, per cent of control (%)
Provide the reading as a plain figure in %.

Here are 3 compounds together with their reported answers.
Cn1c(=O)n(-c2ccc(C(C)(C)C#N)cc2)c2c3cc(-c4cnc5ccccc5c4)ccc3ncc21    100
C=CC(=O)Nc1cccc(Nc2nc(N[C@H]3CC[C@H](N(C)C)CC3)nc3c2ncn3C(C)C)c1    100
Nc1ccc(-c2ccc3ncc4ccc(=O)n(-c5cccc(C(F)(F)F)c5)c4c3c2)cn1    100

Reported kinase still bound, per cent of control of "Cc1cc([C@@H](C)Nc2ccccc2C(=O)O)c2nc(N3CCOCC3)cc(=O)n2c1" : 100

Reported kinase still bound, per cent of control of "CN(C)C/C=C/C(=O)Nc1cccc(Nc2ncc3c(n2)N(C)c2ccccc2C(=O)N3C)c1" : 0.65

Reported kinase still bound, per cent of control of "Cc1ccc(NC(=O)c2cccc(C(C)(C)C#N)c2)cc1Nc1ccc2ncn(C)c(=O)c2c1" : 100

Reported kinase still bound, per cent of control of "C[C@@H](Oc1cc(-n2cnc3ccc(CN4CCN(C)CC4)cc32)sc1C(N)=O)c1ccccc1C(F)(F)F" : 100

Reported kinase still bound, per cent of control of "N#Cc1c(NC(=O)c2cccc3ccccc23)sc2c1CCCC2" : 100

====

Target: SRMS (human)
Test: KINOMEscan competition binding
Settings: compound 10.0 µM
reportedEndpoint: kinase still bound, per cent of control (%)
Provide the reading as a plain figure in %.

Here are 8 molecules together with their reported answers.
Nc1ccc(-c2ccc3ncc4ccc(=O)n(-c5cccc(C(F)(F)F)c5)c4c3c2)cn1    88
O=C(O)c1ccc(Nc2ncc3c(n2)-c2ccc(Cl)cc2C(c2c(F)cccc2F)=NC3)cc1    54
COc1cc(N2CCN(C)CC2)ccc1Nc1nc(N)c(C(=O)c2c(Cl)cccc2Cl)s1    71
O=C1Nc2ccc(I)cc2/C1=C/c1cc(Br)c(O)c(Br)c1    65
O=C(NC1CC1)c1cccc(-c2ccc3c(NC(=O)C4CC4)n[nH]c3c2)c1    93
C=CC(=O)Nc1cccc(Nc2nc(N[C@H]3CC[C@H](N(C)C)CC3)nc3c2ncn3C(C)C)c1    88
O=C(NOC[C@H](O)CO)c1ccc(F)c(F)c1Nc1ccc(I)cc1F    95
CCC(=O)N1CCN(c2ccc(-n3c(=O)ccc4cnc5ccc(-c6cnc7ccccc7c6)cc5c43)cc2C(F)(F)F)CC1    92

// below: kinase still bound, per cent of control requested for another molecule
Reported kinase still bound, per cent of control of COc1cc(C(=O)NC2CCN(C)CC2)ccc1Nc1ncc2c(n1)N(C1CCCC1)C(C)CC(=O)N2C (centres undefined) : 100
